TESTED_TARGET: KEAP1 321-609, Q14145
Sequence (Q14145 321-609): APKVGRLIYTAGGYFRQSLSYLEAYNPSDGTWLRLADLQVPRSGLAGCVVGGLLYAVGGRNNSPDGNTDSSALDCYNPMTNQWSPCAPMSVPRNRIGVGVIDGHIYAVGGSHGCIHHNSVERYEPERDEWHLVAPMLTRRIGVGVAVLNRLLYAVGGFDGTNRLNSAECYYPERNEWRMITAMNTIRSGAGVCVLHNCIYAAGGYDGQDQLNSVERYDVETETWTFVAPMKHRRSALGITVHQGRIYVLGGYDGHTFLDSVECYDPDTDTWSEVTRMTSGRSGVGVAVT
VALUE_KIND: selected by phage display

Illustrative cases are given below, each with its answer.
FALEYEADSGEVTSVI [C2orf68, Q2NKX9] | confidence 2 (active)
VEKDKVTGETRVLSST [PALM, O75781] | confidence 2 (active)
VLPDALTDGSDVVSDL [CFAP36, Q96G28] | confidence 2 (active)
PSPETGEAKRSAFVEV [PRDM8, Q9NQV8] | confidence 3 (active)
TDELLRHPVTGEVVER [C6orf132, Q5T0Z8] | confidence 4 (active)
GGIIDPSTGERFPVTD [PLEC, Q15149] | confidence 4 (active)
PINPSTGELSTSSSSN [MCC, P23508] | confidence 4 (active)

Now, please, on to the next binder.
-- ask Fill blank: measured selected by phage display of the binder YDPVTGEWKSLAKLPE [KLHL24, Q6TFL4] is ____.
-- reply confidence 3 (active)
